For each record, write down the corresponding TGI.
tested on: CAKI-1 renal; assay: NCI tumour cell line growth inhibition, 48 h

Q. Quick one: TGI for "COc1ccc(-c2ncnc3c2ncn3CC#CCCl)cc1" ?
A. 3.11 µM

Q. Recorded TGI for "Cc1cccc(-c2nnc3s/c(=C\c4ccc(N(C)C)cc4)c(=O)n23)c1" , please?
A. > 100 µM

Q. Item under review: "O=C(Cc1ccc2ccccc2c1)NCc1ccc(C(=O)NCCc2ccccc2)cc1" . Reported TGI?
A. > 100 µM

Q. Dear colleague, I am looking for the recorded TGI of the following compound: "O=C(O)/C=C/c1ccc(Oc2ccccc2C(=O)O)o1"
A. > 10 µM

Q. Please give the measured TGI for this compound: "COc1cnc2c(c1)C(=O)c1c-2n(CCCN2CCCC2)c(=O)c2cc([N+](=O)[O-])ccc12"
A. 1.46 µM

Q. // TGI lookup, key: "CC(C)(C)OC(=O)NCC(CNC(=O)OC(C)(C)C)C(N)=O"
A. > 100 µM
